Tested on: LOX IMVI
assay.notes: NCI tumour cell line growth inhibition, 48 h
Active and inactive are the calls of the source. Cut-off read from the data, not from the text of the source: active = GI50 up to about 1.1 µM and inactive = higher.
Possible outcomes: active, inactive

INSERT INTO assay_data (compound, class_assignment) VALUES
  ('O=C(NCCCNCCCNC(=O)c1cc(-c2ccccc2)nc2ccccc12)c1cc(-c2ccccc2)nc2ccccc12', 'inactive'),
  ('CC(C)C1=CC2=CC[C@@H]3[C@](C)(CCC[C@@]3(C)C(=O)O)[C@H]2CC1', 'inactive'),
  ('Cc1cc2cccc(Cl)c2nc1C(=O)c1ccccc1', 'inactive'),
  ('Cc1nc(-n2nc(-c3ccccc3)cc2-c2ccccc2)sc1C(=O)/C=C/c1ccccc1', 'inactive'),
  ('COc1cc2c(cc1C)NC(=O)/C2=C/c1c(Cl)n(C)c2ccccc12', 'inactive'),
  ('Oc1ccc(Cl)cc1C1=Nn2c(COc3ccc4c(c3)CCCC4)nnc2SC1', 'inactive'),
  ('CCOC(=O)/C=C(/C(=O)OCC)n1cc(C)c(=O)n(Cc2cnnn2CCCCOC(C)=O)c1=O', 'inactive'),
  ('Cc1ccccc1-n1c(=O)nc2n(-c3ccc(C(C)(C)C)cc3)c3ccccc3cc-2c1=O', 'inactive'),
  ('OC(Cc1ccc2ccccc2n1)(C(F)(F)F)C(F)(F)F', 'inactive'),
  ('CC(C)(C)n1c(=O)n2c(-c3ccccc3)c(-c3ccccc3)n2c1=O', 'inactive'),
  ('C/N=c1\sc2c(n1C)C(=O)c1ccccc1C2=O', 'inactive'),
  ('COc1ccc(/C=C2\CC3C4CC=C5C[C@@H](N6CCCC6)CC[C@]5(C)C4CC[C@]3(C)[C@H]2O)cc1OC (some centres undefined)', 'inactive'),
  ('CC(C)(C)C(=O)Nc1c(C=O)ccc2[nH]cnc12', 'inactive'),
  ('Cn1c(S)nnc1-c1csc(-c2ccc(Cl)cc2)n1', 'inactive'),
  ('NC(=O)C(=O)C(c1ccccc1)S(=O)(=O)Cc1ccccc1 (centres undefined)', 'inactive'),
  ('CC(C)=CCC[C@@H](C)C1=C(O)C(=O)C(C)=C(c2c(I)c(=O)n(C)c(=O)n2C)C1=O', 'inactive'),
  ('COC(=O)c1cc2c(c3c1CC(Cc1ccccc1)C3=O)CCC2 (centres undefined)', 'inactive'),
  ('CCCCNC1=C(C(=O)OCC)/C(=N/NC(=O)c2ccccc2O)CO1', 'inactive'),
  ('CC(C)CC(NC(=O)C(COc1ccc([N+](=O)[O-])cc1)Cc1ccccc1)C(=O)Nc1ccccc1 (centres undefined)', 'inactive'),
  ('CC[C@@H]1/C=C/C=C/C[C@H](C)[C@@H](O)[C@](C)(O)C(=O)[C@H](C)[C@@H](O)[C@H](C)C(=O)[C@H](C)[C@@H](O)[C@H](C)/C=C/C(=O)O[C@H]2[C@@H](C)[C@@H](CC1)O[C@]1(O[C@H](CC(C)O)[C@H](C)CC1=O)[C@@H]2C (some centres undefined)', 'inactive'),
  ('O=c1ccn(C2OC(CN(O)CCC3C(O)C(CO)OC3n3ccc(=O)[nH]c3=O)C(O)C2O)c(=O)[nH]1 (centres undefined)', 'inactive'),
  ('CC1CC(=O)CC[C@@H]1OCc1ccccc1 (some centres undefined)', 'inactive'),
  ('CC(C)c1cccc(C(C)C)c1NC(=O)C(=O)C(C(=O)c1ccccc1-c1ccccc1)C1OC(=O)c2ccccc21 (centres undefined)', 'inactive'),
  ('CC(=O)O/N=C(Cl)/C(Cl)=N/OC(C)=O', 'inactive'),
  ('Cc1ccc(S[C@@](C=O)(NC(=O)OCc2ccccc2)C(F)(F)F)cc1', 'inactive'),
  ('CCn1c(SCC(=O)N/N=C2\SCC(=O)N2c2ccc(C)cc2)nc2ccccc2c1=O', 'inactive'),
  ('CN(C(=O)C12C3C4C1C1C2C3C41C#N)C(C)(C)C (centres undefined)', 'inactive'),
  ('Nc1ccc2nc(Nc3ccc(Cl)c(Cl)c3)cnc2c1', 'inactive'),
  ('CC(C)c1cc(C(C)C)c(Cl)c(Cl)c1O.CC(C)c1cc(Cl)c(O)c(C(C)C)c1Cl', 'inactive'),
  ('CCN(CCCl)CCNc1c2ccccc2nc2ccc(OC)cc12', 'active'),
  ('CC1=NCCN=C(C)C1/N=N/c1ccc2[nH]c(C)nc2c1', 'inactive'),
  ('O=C1c2c(O)cccc2C(C2OC(CO)C(O)C(O)C2O)c2cc(CO)cc(O)c21 (centres undefined)', 'inactive'),
  ('Cc1coc2c1[C@@H](O)[C@@]1(C)[C@H](CCC[C@@H]1C)C2', 'inactive'),
  ('CCN(CC)C(=O)C(C)n1cc(C)c(=O)[nH]c1=O (centres undefined)', 'inactive'),
  ('c1ccc(-c2cc(-c3cc(-c4ccccc4)no3)on2)cc1', 'inactive'),
  ('COc1ccc(OC)c(/C=C2/C(=O)N/C(=N\C(C)=O)N2C)c1', 'inactive'),
  ('O=C(CSc1nc2ccc(I)cc2c(=O)n1Cc1ccccc1)Nc1ccc(Br)cc1', 'inactive'),
  ('COc1ccc2nc3c(c(N)c2c1)C1CCC3C1(C)C (centres undefined)', 'inactive'),
  ('c1cc2nnc1SCCCSc1ccc(nn1)SCCCSc1ccc(nn1)SCCCS2', 'inactive');
